Tested on: SK-MEL-28 melanoma
Assay: NCI tumour cell line growth inhibition, 48 h
TGI below 40 µM gives FALSE; TGI at or above it gives TRUE.

>>> df
                                   compound  category_label
0  COc1cc2c(cc1O)[C@H](C)C(c1ccc(OC)c(OC)c1)O2 (stereo not given in full)           FALSE
1  Cc1[cH-]c(=O)n(-c2ccccc2)n1.[Au+].[Au].c1ccc([PH+](c2ccccc2)c2ccccc2)cc1.c1ccc([PH+](c2ccccc2)c2ccccc2)cc1           FALSE
2  Cc1cc(OC(=O)Nc2cccc3ccccc23)c(C(C)C)cc1C(=S)Nc1ccccc1           FALSE
3  COc1cc(S(=O)(=O)Nc2ccc(-c3csc(N4C(=O)CSC4c4cccc(Oc5ccccc5)c4)n3)cc2)ccc1Cl (stereo not given)            TRUE
4  CN1CCN(c2ccc(Nc3ncc(Cl)c(NC[C@@H]4CCCO4)n3)cc2)CC1           FALSE
5  COc1ccc(Cn2c(Br)c3c(c2Br)-c2nc(N)sc2CC3)cc1           FALSE
6  O=C(O)Cc1ccc([N+](=O)[O-])cc1[N+](=O)[O-]            TRUE
7  COCCn1cc(-c2nc(-c3cc4cccnc4[nH]3)cs2)c2cc(OC)ccc21            TRUE

----------
The entries below are paired with their reported TGI.
Test system: RPMI-8226 leukemia
Assay: NCI tumour cell line growth inhibition, 48 h
readout: TGI (µM)

                                    compound       target_system  relation_qualifier  observed_measurement
 0  CCOC(=O)C1Sc2ccccc2N=C1C (stereo unspecified)  RPMI-8226 leukemia                   >                   100
 1  Cc1cc(OC(=O)Nc2cccc3ccccc23)c(C(C)C)cc1C(=S)Nc1ccccc1  RPMI-8226 leukemia                   =                  75.8
 2      NC(=S)N/N=C\c1nccc2c(C(F)(F)F)cccc12  RPMI-8226 leukemia                   =                  14.9
 3           CCOC(=O)c1cn2c(n1)sc1cc(F)ccc12  RPMI-8226 leukemia                   >                   100
 4  CON(C)C(=O)C(C)N(Cc1ccccc1)Cc1ccccc1 (stereo unspecified)  RPMI-8226 leukemia                   >                   100
 5  CCOC(=O)CCC(NC(=O)C(N)Cc1ccc(N(CCCl)CCCl)cc1)C(=O)OCC (stereo unspecified)  RPMI-8226 leukemia                   =                  17.7
 6                N#CCCC[Si]12OCCN(CCO1)CCO2  RPMI-8226 leukemia                   >                   100
 7  COc1cc(/C=C2\CN(S(=O)(=O)c3ccc(C)cc3)C/C(=C\c3cc(CN4CCCC4)c(O)c(OC)c3)C2=O)cc(CN2CCCC2)c1O  RPMI-8226 leukemia                   =                  3.17
 8  NC(Cc1ccccc1)C(=O)NC(Cc1ccccc1)NC(=O)C(Cc1c[nH]c2ccccc12)C(=O)O (stereo unspecified)  RPMI-8226 leukemia                   >                   100
 9  COCOC1/C=C/CCCCC(=O)C(C)C#CC1 (stereo unspecified)  RPMI-8226 leukemia                   =                  5.96
10  O=C1NC(=NCc2ccccc2)S/C1=C\c1ccc2ncccc2c1  RPMI-8226 leukemia                   >                    25
